system: RPMI-8226 leukemia; experiment: NCI-60 one-dose screen, 48 h (100 = growth as untreated, 0 = no growth, -100 = all killed); conditions: 10 µM unless noted
This is part of a sample that, as a whole, favours compounds with a hit. Of some 83,000 tested, about 20% had one in any assay.
// growth lookup, one value per entry
quantity-kind: growth (%)

>>> data_value("COc1cc(/C=C/C(=O)c2ccc(C(F)(F)F)cc2)ccc1Oc1nc(NCCO)nc(N2CCOCC2)n1")
-16.1
>>> data_value("CS(=O)(=O)c1ccc(-n2cc(/C=C/C(=O)c3ccc(NC(=O)CO[N+](=O)[O-])cc3)c(-c3ccc(Cl)cc3)n2)cc1")
108
>>> data_value("Nc1c(C(=O)c2ccc(Br)cc2)oc2nc(-c3cnccn3)cc(-c3cccs3)c12")
99.8
>>> data_value("O=C(N/N=C/c1cccs1)c1[nH]c2ccc(Br)cc2c1-c1ccccc1")
3.64
>>> data_value("CN(C)CCCOc1c2ccc(Cl)cc2nc2c1oc1ccc(Cl)cc12")
-20.8
>>> data_value("CN1CCN(Cc2ccc(NC(=O)c3cncc(C#Cc4cnc5[nH]ncc5c4)c3)cc2C(F)(F)F)CC1")
31.2
>>> data_value("CS(=O)(=O)c1ccc(-c2nc3ccccn3c2-c2nc3ccc([N+](=O)[O-])cc3[nH]2)cc1")
95.1
>>> data_value("Fc1ccc(-c2cc3nc(C(Cl)Cl)nc(-c4ccc(Cl)cc4)n3n2)cc1")
10.9
>>> data_value("COc1cccc(OC)c1-c1nnn(C)c1C(=S)N1CCN(c2ccc([N+](=O)[O-])cc2Cl)CC1")
77.5
